# Test system: RIVA
# experiment_description: growth inhibition by drug alone (1 - RLU/untreated control) (fraction); higher = stronger inhibition
# condition_set: 10 nM; time (day): 4; 177Lu-lilotomab satetraxetan 0 ug/ml
Where a name gives a salt, the structure may show the parent alone.
reported_endpoint: growth inhibition by drug alone

In [3]: df
Out[3]:
                                   compound  target_under_test                reported_endpoint  measured
0  Cc1ccc(-c2cc(C(F)(F)F)nn2-c2ccc(S(N)(=O)=O)cc2)cc1               RIVA  growth inhibition by drug alone    -0.129
1  O=C1CN2Cc3c(ccc(Cl)c3Cl)N=C2N1 [Anagrelide hydrochloride]               RIVA  growth inhibition by drug alone     0.111
2  CN1CCN(CCOc2cc(OC3CCOCC3)c3c(Nc4c(Cl)ccc5c4OCO5)ncnc3c2)CC1               RIVA  growth inhibition by drug alone    -0.164
3  CCNC(=O)c1noc(-c2cc(C(C)C)c(O)cc2O)c1-c1ccc(CN2CCOCC2)cc1               RIVA  growth inhibition by drug alone   -0.0275
